# EXPERIMENTAL TARGET: BCRP (Homo sapiens)
# Construct: host or cells: MDCK (BCRP-MDCK)
# Sequence (Q9UNQ0 whole entry): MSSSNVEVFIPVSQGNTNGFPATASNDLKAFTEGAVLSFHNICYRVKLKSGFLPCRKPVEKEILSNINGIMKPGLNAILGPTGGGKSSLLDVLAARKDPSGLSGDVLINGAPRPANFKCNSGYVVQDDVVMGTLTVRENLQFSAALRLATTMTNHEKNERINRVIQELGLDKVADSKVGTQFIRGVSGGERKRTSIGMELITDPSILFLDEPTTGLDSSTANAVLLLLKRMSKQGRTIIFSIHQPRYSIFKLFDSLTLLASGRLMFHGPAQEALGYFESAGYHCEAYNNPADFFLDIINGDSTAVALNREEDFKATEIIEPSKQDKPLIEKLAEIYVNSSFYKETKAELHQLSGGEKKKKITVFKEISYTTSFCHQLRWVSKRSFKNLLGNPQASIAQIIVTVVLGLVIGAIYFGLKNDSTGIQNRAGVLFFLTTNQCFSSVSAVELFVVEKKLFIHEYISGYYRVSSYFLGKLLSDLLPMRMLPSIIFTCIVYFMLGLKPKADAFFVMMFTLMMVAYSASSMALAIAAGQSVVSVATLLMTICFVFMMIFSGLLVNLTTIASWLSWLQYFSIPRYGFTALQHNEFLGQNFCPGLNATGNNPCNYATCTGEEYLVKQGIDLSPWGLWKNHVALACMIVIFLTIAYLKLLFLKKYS
# PROCEDURE TEXT: Bidirectional transport in MDCK-BCRP monolayers
# Type: in vitro ADME
# CONDITION DETAILS: dog, pH 7.4, with Ko143 0.5 µM; MDCK-BCRP, 5 µM, 0.5 µM Ko143
# Description: Caco-2 (American Type Culture Collection), MDR1-MDCK (NIH), and BCRP-MDCK (transfected by Absorption Systems) cell monolayers were grown to confluence on collagen-coated, microporous membranes in 12-well assay plates. Caco-2 cells were cultured for 27 days, MDCK-MDR1 and MDCK-BCRP cells were cultured for 8 days prior to experiments. […] The apparent permeability (Papp) and percent recovery were calculated as described previously ([Katoh et al., 2006]; [Xia et al., 2006]; [Li et al., 2008]).
PROPERTY NAME: Papp A→B at 2 h, 5 µM

Query :: Please report Papp A→B at 2 h, 5 µM for the following molecule: N#C[C@@]1(c2ccc3c(N)ncnn23)O[C@H](CO)[C@@H](O)[C@H]1O
Result :: < 0.198 ×10⁻⁶ cm/s

----------
# PROCEDURE TEXT: Pharmacokinetics in Cynomolgus monkeys
# Type: in vivo
# CONDITION DETAILS: male, cynomolgus monkey, in vivo, po, 5 mg/kg
PROPERTY NAME: Tmax (h)
State just the number; it will be interpreted in h.

Query :: Return Tmax for the following molecule: N#C[C@@]1(c2ccc3c(N)ncnn23)O[C@H](CO)[C@@H](O)[C@H]1O
Result :: 2

----------
# PROCEDURE TEXT: Pharmacokinetics in C57BL/6 mice
# Type: in vivo, mouse
# CONDITION DETAILS: male, C57BL/6, mouse, in vivo, po, 10 mg/kg
PROPERTY NAME: AUC(0-inf) (ng·h/mL)
Form entry: value (ng·h/mL) — number only.

Query :: Query AUC(0-inf) for N#C[C@@]1(c2ccc3c(N)ncnn23)O[C@H](CO)[C@@H](O)[C@H]1O [GS-441524]
Result :: 2540

----------
# PROCEDURE TEXT: Pharmacokinetics in Beagle dogs
# Type: in vivo, dog
# CONDITION DETAILS: male, beagle, dog, in vivo, iv, 2 mg/kg
PROPERTY NAME: clearance (mL/min/kg)
# value in mL/min/kg; strip the unit string

Query :: Determine from records and report clearance for N#C[C@@]1(c2ccc3c(N)ncnn23)O[C@H](CO)[C@@H](O)[C@H]1O [GS-441524]
Result :: 4.1

----------
# PROCEDURE TEXT: Pharmacokinetics in Sprague Dawley rats
# Assay type: in vivo
# CONDITION DETAILS: male, rat, in vivo, po, 100 mg/kg
PROPERTY NAME: Cmax (ng/mL)
# output: bare number, implied unit ng/mL

Query :: Tell me Cmax reported for N#C[C@@]1(c2ccc3c(N)ncnn23)O[C@H](CO)[C@@H](O)[C@H]1O
Result :: 825

----------
# PROCEDURE TEXT: in vitro
# Assay type: in vitro ADME, human
# CONDITION DETAILS: male, Sprague-Dawley (rat), CD-1 (mouse), Beagle (dog), monkey, plasma
PROPERTY NAME: fraction unbound at 4 h, 10 µM

Query :: Look up fraction unbound at 4 h, 10 µM of N#C[C@@]1(c2ccc3c(N)ncnn23)O[C@H](CO)[C@@H](O)[C@H]1O [GS-441524] and report it.
Result :: 0.62 to 0.64
